Recorded log10(IC50) values for a group of compounds are listed next.
Target: EZH2 Mutant Y641N (Homo sapiens (Human), UniProt Q15910, Y641N)
Sequence (Q15910 whole entry Y641N, looked up): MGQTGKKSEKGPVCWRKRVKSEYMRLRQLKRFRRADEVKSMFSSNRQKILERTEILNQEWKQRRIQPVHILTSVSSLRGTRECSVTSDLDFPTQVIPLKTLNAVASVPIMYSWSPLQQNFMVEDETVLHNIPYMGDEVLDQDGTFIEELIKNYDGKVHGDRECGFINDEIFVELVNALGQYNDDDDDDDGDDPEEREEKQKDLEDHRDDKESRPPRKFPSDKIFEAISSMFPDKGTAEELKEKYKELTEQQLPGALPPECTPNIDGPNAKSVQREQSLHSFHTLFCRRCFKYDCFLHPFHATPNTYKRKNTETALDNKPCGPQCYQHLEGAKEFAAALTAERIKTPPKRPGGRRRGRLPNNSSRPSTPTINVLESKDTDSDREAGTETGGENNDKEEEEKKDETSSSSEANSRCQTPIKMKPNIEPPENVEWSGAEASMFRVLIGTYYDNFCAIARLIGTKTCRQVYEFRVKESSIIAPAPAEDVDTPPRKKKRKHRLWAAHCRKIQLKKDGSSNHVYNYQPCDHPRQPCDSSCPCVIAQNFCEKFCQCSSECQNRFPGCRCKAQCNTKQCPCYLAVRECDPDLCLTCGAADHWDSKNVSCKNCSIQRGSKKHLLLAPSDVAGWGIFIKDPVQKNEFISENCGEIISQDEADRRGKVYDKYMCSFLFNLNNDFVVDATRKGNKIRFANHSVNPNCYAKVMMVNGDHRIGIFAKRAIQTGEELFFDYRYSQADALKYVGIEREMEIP
Sequence (O75530 whole entry partner, looked up): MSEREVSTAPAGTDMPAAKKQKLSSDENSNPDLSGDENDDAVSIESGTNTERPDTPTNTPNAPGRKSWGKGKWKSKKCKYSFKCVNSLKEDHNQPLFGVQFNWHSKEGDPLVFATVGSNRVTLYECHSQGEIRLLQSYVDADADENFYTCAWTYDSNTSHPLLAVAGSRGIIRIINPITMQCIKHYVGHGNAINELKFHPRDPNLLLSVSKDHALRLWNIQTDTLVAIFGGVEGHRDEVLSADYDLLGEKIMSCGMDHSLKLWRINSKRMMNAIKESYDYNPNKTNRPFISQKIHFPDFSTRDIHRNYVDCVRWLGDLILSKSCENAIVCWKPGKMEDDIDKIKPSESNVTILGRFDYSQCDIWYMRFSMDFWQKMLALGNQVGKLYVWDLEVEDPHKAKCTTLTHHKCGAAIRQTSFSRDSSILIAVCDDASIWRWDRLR
Sequence (Q15022 whole entry partner, looked up): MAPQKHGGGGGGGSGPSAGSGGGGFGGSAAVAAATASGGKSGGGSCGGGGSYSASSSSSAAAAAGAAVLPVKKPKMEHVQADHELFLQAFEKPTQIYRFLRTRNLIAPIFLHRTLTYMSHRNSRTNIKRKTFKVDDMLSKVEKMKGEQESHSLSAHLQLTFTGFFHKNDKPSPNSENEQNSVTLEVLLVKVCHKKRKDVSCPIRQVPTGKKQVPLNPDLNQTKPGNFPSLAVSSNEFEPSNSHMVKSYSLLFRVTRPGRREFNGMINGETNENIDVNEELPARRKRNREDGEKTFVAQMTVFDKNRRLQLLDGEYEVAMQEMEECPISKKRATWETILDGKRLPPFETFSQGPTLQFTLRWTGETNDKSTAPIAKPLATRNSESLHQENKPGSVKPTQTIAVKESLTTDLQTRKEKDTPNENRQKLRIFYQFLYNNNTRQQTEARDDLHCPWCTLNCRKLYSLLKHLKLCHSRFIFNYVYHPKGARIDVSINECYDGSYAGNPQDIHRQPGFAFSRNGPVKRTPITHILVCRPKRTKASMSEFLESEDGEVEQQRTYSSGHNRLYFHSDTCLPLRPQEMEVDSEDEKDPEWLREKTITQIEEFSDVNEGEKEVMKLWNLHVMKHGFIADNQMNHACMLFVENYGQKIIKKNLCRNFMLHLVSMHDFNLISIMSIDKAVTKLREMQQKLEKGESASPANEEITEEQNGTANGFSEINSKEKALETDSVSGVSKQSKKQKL
Sequence (Q09028 whole entry partner, looked up): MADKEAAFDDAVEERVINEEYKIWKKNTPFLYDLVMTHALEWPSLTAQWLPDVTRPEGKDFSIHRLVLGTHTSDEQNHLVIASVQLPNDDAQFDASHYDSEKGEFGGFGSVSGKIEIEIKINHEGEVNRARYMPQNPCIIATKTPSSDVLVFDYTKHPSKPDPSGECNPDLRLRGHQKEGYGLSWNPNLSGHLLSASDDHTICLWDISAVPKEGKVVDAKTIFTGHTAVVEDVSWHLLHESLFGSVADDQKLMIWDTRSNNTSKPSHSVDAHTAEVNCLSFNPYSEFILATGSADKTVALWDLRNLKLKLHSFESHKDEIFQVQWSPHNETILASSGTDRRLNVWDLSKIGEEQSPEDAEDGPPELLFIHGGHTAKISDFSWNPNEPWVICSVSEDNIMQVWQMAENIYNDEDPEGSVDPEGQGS
Assay: EZH2 Mutant Y641N nucleosome assay
Assay type: biochemical
Conditions: EZH2 Mutant Y641N Nucleosome assay IC50 (μM), PRC2 4-protein complex 6 nM, 1.5 μM SAM, HeLa oligonucleosomes
Note: values are log10 of IC50 expressed in µM.

Worked set:
1. CCC(OC)c1cc(Cl)c2c(c1Cl)C(=O)N(Cc1c(C)cc(C)[nH]c1=O)CC2 (single isomer, unassigned) [Example 15]	-1.72
2. CCC(CO)c1cc(Cl)c2c(c1Cl)C(=O)N(Cc1c(C)cc(C)[nH]c1=O)CC2 (single isomer, unassigned) [Example 29]	-0.97
3. COC(c1cc(Cl)c2c(c1Cl)C(=O)N(Cc1c(C)cc(C)[nH]c1=O)CC2)C1CCN(C(=O)CO)CC1 (single isomer, unassigned) [Example 36]	-0.35

IN: Name the reported log10(IC50) value associated with the compound COc1cc(C)[nH]c(=O)c1CN1CCc2c(Cl)cc(C(OC)C3CCOC3)c(Cl)c2C1=O (single isomer, unassigned) [Example 127]
OUT: -2.66

IN: Next record, please: Cc1cc(C)c(CN2CCc3c(Cl)cc([C@H](CO)[C@@H]4CCOC4)c(Cl)c3C2=O)c(=O)[nH]1 (single isomer, unassigned)
OUT: -2.40

IN: Next record, please: COC(c1cc(Cl)c2c(c1Cl)C(=O)N(Cc1c(C)cc(C)[nH]c1=O)CC2)C1CCN(C)CC1 (single isomer, unassigned) [Example 136]
OUT: -2.52

* * *

Target: WT EZH2 (Homo sapiens (Human), UniProt Q15910)
Sequence (Q15910 whole entry, looked up): as the sequence (Q15910 whole entry Y641N, looked up) above, with N641Y counted along it
Sequence (O75530 whole entry partner, looked up): as the sequence (O75530 whole entry partner, looked up) above
Sequence (Q15022 whole entry partner, looked up): as the sequence (Q15022 whole entry partner, looked up) above
Sequence (Q09028 whole entry partner, looked up): as the sequence (Q09028 whole entry partner, looked up) above
Experiment: WT EZH2 nucleosome assay (10X SAM, high SAM conditions)
Assay type: biochemical
Conditions: 15 uM SAM, Ki app from competitive inhibition fit, read-out: WT EZH2 Nucleosome assay (10X SAM) Ki
Recorded Ki values for a group of compounds are listed next.
Field: numeric (nM). Do not append units.

Worked set:
1. Cc1cc(C)c(CN2CCc3c(Cl)cc(C(CO)N4CCC(F)(F)C4)c(Cl)c3C2=O)c(=O)[nH]1 (racemic) [Example 59]	25
2. COC(c1cc(Cl)c2c(c1Cl)C(=O)N(Cc1c(C)cc(C)[nH]c1=O)CC2)C1CC[S+]([O-])CC1 (single isomer, unassigned) [Example 114]	16
3. Cc1cc(C)c(CN2CCc3c(Cl)cc([C@@H](CO)[C@@H]4CCCO4)c(Cl)c3C2=O)c(=O)[nH]1	121
4. COc1cc(C)[nH]c(=O)c1CN1CCc2c(Cl)cc(C(C3COC3)N(C)C)c(Cl)c2C1=O (single isomer, unassigned) [Example 203]	55
5. CC(=C1CN(S(C)(=O)=O)C1)c1cc(C)c2c(c1Cl)C(=O)N(Cc1c(C)cc(C)[nH]c1=O)CC2	22

IN: Name the reported Ki value associated with the compound CC(=O)N1CC(=C(C)c2cc(Cl)c3c(c2Cl)C(=O)N(Cc2c(C)cc(C)[nH]c2=O)CC3)C1
OUT: 5

IN: Next record, please: Cc1cc(OC(F)F)c(CN2CCc3c(Cl)cc(C(CO)C4CCOC4)c(Cl)c3C2=O)c(=O)[nH]1 (single isomer, unassigned) [Example 93]
OUT: 159

IN: Next record, please: COC(c1cc(Cl)c2c(c1Cl)C(=O)N(Cc1c(C)cc(C)[nH]c1=O)CC2)C1CN(C(=O)CO)C1 (single isomer, unassigned) [Example 129]
OUT: 0.8

IN: Next record, please: COC(c1cc(Cl)c2c(c1Cl)C(=O)N(Cc1c(C)cc(C)[nH]c1=O)CC2)C1(O)CCOCC1 (single isomer, unassigned) [Example 52]
OUT: 298

IN: Next record, please: COC(c1cc(C)c2c(c1Cl)C(=O)N(Cc1c(C)cc(C)[nH]c1=O)CC2)C1CNC1 (racemic)
OUT: 3

IN: Next record, please: COC(c1cc(Cl)c2c(c1Cl)C(=O)N(Cc1c(C)cc(C)[nH]c1=O)CC2)C1CN(C)C1 (single isomer, unassigned) [Example 174]
OUT: 0.6

IN: Next record, please: Cc1cc(C)c(CN2CCc3c(Cl)cc(C(F)C4CCN(C(=O)CO)CC4)c(Cl)c3C2=O)c(=O)[nH]1 (single isomer, unassigned; (+)) [Example 8]
OUT: 652

IN: Next record, please: Cc1cc(C)c(CN2CCc3c(Cl)cc(C(C)N4CCN(C)CC4)c(Cl)c3C2=O)c(=O)[nH]1 (racemic)
OUT: 16
